Items are presented alongside their recorded relative affinity.
- test.target: T1, HLA-DR11 (HLA-DRB1*11:01) (human)
- T1 construct: mature; purified from homozygous EBV-transformed lymphoblastoid cells with antibody L243
- test.details: competition ELISA vs biotin-HA 306-318;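 further: HLA and competitor incubated 24 to 72 h, maximal signal taken from wells lacking competitor, background from wells lacking HLA molecule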
No end group written: not given here.

{"columns": ["binder", "relative affinity"],
 "data": [
  ["KHMTVKNKYATSKHA-NH2 [CCNB1 396-410]", 7],
  ["KKLPKPLEKVPMLVP-NH2 [CCNB1 77-91]", 1630],
  ["MELTMLDYDMVHFPP-NH2 [CCNB1 327-341]", 216],
  ["NKVSEQLQAKMPMKK-NH2 [CCNB1 50-64]", 1550],
  ["KDIYAYLRQLEEEQA-NH2 [CCNB1 172-186]", 1],
  ["NKYATSKHAKISTLP-NH2 [CCNB1 402-416]", 4],
  ["H-KNVVMVNQGLTKHMT-NH2 (not fully specified) [CCNB1 385-399]", 766],
  ["RALNFGLGRPLPLHF-NH2 [CCNB1 291-305]", 1000],
  ["FAFVTDNTYTKHQIR-NH2 [CCNB1 269-283]", 2190],
  ["LDYDMVHFPPSQIAA-NH2 [CCNB1 332-346]", 511],
  ["LALKILDNGEWTPTL-NH2 [CCNB1 351-365]", 2330],
  ["SKYEEMYPPEIGDFA-NH2 [CCNB1 256-270]", 1370],
  ["PKYLLGREVTGNMRA-NH2 [CCNB1 189-203]", 3],
  ["REVTGNMRAILIDWL-NH2 [CCNB1 195-209]", 1180],
  ["GEWTPTLQHYLSYTE-NH2 [CCNB1 359-373]", 22]
]}
